Data provenance is ChEMBL document CHEMBL1122774.

# measurementDescription: Average max percent decrease in RVR (renal vascular resistance) was determined.
Square brackets hold non-standard residues; d marks the D form. Peptide text beside a SMILES is read from it. * marks the point of attachment. ξ: configuration not given here. Butanoyl(4-(4-HOPh)) = O=C(CCCc1ccc(O)cc1)*; ξαMeY = CC(N)(Cc1ccc(O)cc1)C(=O)O
// returns Not satisfied unless Decrease is strictly below 20%, in which case Satisfied

[
  {
    "compound": "CC(Cc1ccccc1)(NC(=O)[C@@H]1CCCN1C(=O)CC12CC3CC(CC(C3)C1)C2)C(=O)N[C@@H](CCCN=C(N)N)C(=O)O (stereo not given in full)",
    "groupLabel": "Satisfied"
  },
  {
    "compound": "CC(Cc1ccc(O)cc1)(NC(=O)[C@@H]1CCCN1C(=O)CCCc1ccc(O)cc1)C(=O)NCC(=O)N1CCC[C@H]1C(=O)O (stereo not given in full) ({Butanoyl(4-(4-HOPh))}-P[ξαMeY]GP-OH)",
    "groupLabel": "Satisfied"
  },
  {
    "compound": "COc1ccc(CC(C)(NC(=O)[C@@H]2CCCN2C(=O)CCCc2ccc(O)cc2)C(=O)N[C@@H](CCCN=C(N)N)C(=O)O)cc1OC (stereo not given in full)",
    "groupLabel": "Not satisfied"
  }
]

Read the next record carefully.
Request: Does CC(Cc1ccc(O)cc1)(NC(=O)[C@@H]1CCCN1C(=O)CCCc1ccc(O)cc1)C(=O)N[C@@H](CCCN=C(N)N)C(=O)O (stereo not given in full) have Decrease strictly under 20%?
Result: Satisfied

----------
Listed here are compounds together with their documented Change.
# System: Canis familiaris
# measurementDescription: In vivo percent change in canine heart rate at 300 ug/Kg/min.
# Format: functional, Canis lupus familiaris
Peptide text beside a SMILES is read from it. * marks the point of attachment. Butanoyl(4-(4-HOPh)) = O=C(CCCc1ccc(O)cc1)*
Supply the numeric figure in %, leaving out any unit text.

Solved cases (3 shown):
[
  {
    "compound": "O=C(NCC(=O)N1CCC[C@H]1C(=O)O)[C@H](Cc1ccccc1)NC(=O)[C@@H]1CCCN1C(=O)CCCc1ccc(O)cc1 ({Butanoyl(4-(4-HOPh))}-PFGP-OH)",
    "reportedEndpoint": "Change",
    "recordedValue": 1.5
  },
  {
    "compound": "N=C(N)NCCC[C@H](NC(=O)[C@@H]1Cc2ccccc2CN1C(=O)CCCc1ccc(O)cc1)C(=O)O",
    "reportedEndpoint": "Change",
    "recordedValue": 0
  },
  {
    "compound": "COc1ccc(CC(C)(NC(=O)[C@@H]2CCCN2C(=O)CCCc2ccc(O)cc2)C(=O)NCCCN)cc1OC.Cl (some centres undefined)",
    "reportedEndpoint": "Change",
    "recordedValue": 1.5
  }
]

Please find the next compound below.
Request: // Change lookup, key: CC(Cc1ccc(O)cc1)(NC(=O)[C@@H]1CCCN1C(=O)CCCc1ccc(O)cc1)C(=O)NCCCN.Cl (some centres undefined)
Result: 3.5

----------
# maps each entry to its Change
# Tested on: Canis familiaris
# measurementDescription: In vivo percent change in canine renal blood flow (RBF) at 30 ug/Kg/min.
# Type: functional, Canis lupus familiaris, Kidney
Peptide text beside a SMILES is read from it. * marks the point of attachment. Butanoyl(4-(4-HOPh)) = O=C(CCCc1ccc(O)cc1)*
Please reply with the bare figure in % and do not write the unit itself.

Below: 4 compounds and their reported Change.
[
  {
    "compound": "N=C(N)NCCC[C@H](NC[C@H](Cc1ccccc1)NC(=O)[C@@H]1CCCN1)C(=O)O",
    "recordedValue": 3
  },
  {
    "compound": "CC(Cc1ccccc1)(NC(=O)[C@@H]1CCCN1C(=O)CC12CC3CC(CC(C3)C1)C2)C(=O)N[C@@H](CCCN=C(N)N)C(=O)O (stereo not given in full)",
    "recordedValue": 0.5
  },
  {
    "compound": "O=C(NCC(=O)N1CCC[C@H]1C(=O)O)[C@H](Cc1ccccc1)NC(=O)[C@@H]1CCCN1C(=O)CCCc1ccc(O)cc1 ({Butanoyl(4-(4-HOPh))}-PFGP-OH)",
    "recordedValue": -43
  },
  {
    "compound": "Cl.NCCCNC(=O)[C@H](Cc1ccccc1)NC(=O)[C@@H]1CCCN1C(=O)CCCc1ccccc1",
    "recordedValue": 5
  }
]

Moving on to the next compound.
Request: Fill blank: measured Change of the compound Cl.Cl.NCCCNC(=O)[C@H](Cc1ccccc1)NC(=O)[C@@H]1CCCN1 is ____.
Result: 5

----------
Overview of recorded Change for various compounds
# System: Canis familiaris
# measurementDescription: In vivo percent change in canine renal blood flow (RBF) at 300 ug/Kg/min.
# Format: functional, Canis lupus familiaris, Kidney
Square brackets hold non-standard residues; d marks the D form. Peptide text beside a SMILES is read from it. * marks the point of attachment. ξ: configuration not given here. Butanoyl(4-(4-HOPh)) = O=C(CCCc1ccc(O)cc1)*; ξαMeF = CC(N)(Cc1ccccc1)C(=O)O
Field: value (include unit after the number)

Solved entries:
[
  {
    "compound": "CC(Cc1ccccc1)(NC(=O)[C@@H]1CCCN1C(=O)CCCc1ccc(O)cc1)C(=O)NCC(=O)N1CCC[C@H]1C(=O)O (some centres undefined) ({Butanoyl(4-(4-HOPh))}-P[ξαMeF]GP-OH)",
    "recordedValue": "14%"
  },
  {
    "compound": "CC(Cc1ccccc1)(NC(=O)[C@@H]1CCCN1)C(=O)NCCCN.Cl.Cl (some centres undefined)",
    "recordedValue": "2%"
  },
  {
    "compound": "CC(Cc1ccccc1)(NC(=O)[C@@H]1CCCN1C(=O)CC12CC3CC(CC(C3)C1)C2)C(=O)N[C@@H](CCCN=C(N)N)C(=O)O (some centres undefined)",
    "recordedValue": "-14%"
  }
]

Kindly review the next compound as well.
Request: Give Canis familiaris Change for N=C(N)NCCC[C@H](NC(=O)[C@@H]1Cc2ccccc2CN1C(=O)CCCc1ccc(O)cc1)C(=O)O
Result: -12%

----------
# Tested on: Canis familiaris
# measurementDescription: In vivo percent change in renal blood flow at 30 ug/Kg/min.
# Assay type: functional, Canis lupus familiaris, Kidney
Square brackets hold non-standard residues; d marks the D form. Peptide text beside a SMILES is read from it. * marks the point of attachment. Butanoyl(4-(4-HOPh)) = O=C(CCCc1ccc(O)cc1)*
reportedEndpoint: Change (%)
Express it in %; write the number only.

Please review the entries below; each comes with its answer.
[
  {
    "compound": "CC(Cc1ccccc1)(NC(=O)[C@@H]1CCCN1C(=O)CCCc1ccc(O)cc1)C(=O)NCCCCCC(=O)O (stereo partly drawn)",
    "Change (%)": -4
  },
  {
    "compound": "O=C(NCC(=O)N1CCC[C@H]1C(=O)O)[C@@H](Cc1ccccc1)NC(=O)[C@@H]1CCCN1C(=O)CCCc1ccc(O)cc1 ({Butanoyl(4-(4-HOPh))}-P[dF]GP-OH)",
    "Change (%)": 0
  },
  {
    "compound": "CC(CN[C@@H](CCCN=C(N)N)C(=O)O)(Cc1ccccc1)NC(=O)[C@@H]1CCCN1C(=O)CCCc1ccccc1 (stereo partly drawn)",
    "Change (%)": 10
  },
  {
    "compound": "COc1ccc(CC(C)(NC(=O)[C@@H]2CCCN2C(=O)CCCc2ccccc2)C(=O)N[C@@H](CCCN=C(N)N)C(=O)O)cc1OC (stereo partly drawn)",
    "Change (%)": 8.5
  },
  {
    "compound": "N=C(N)NCCC[C@H](NC(=O)[C@@H]1Cc2ccccc2CN1C(=O)CCCc1ccc(O)cc1)C(=O)O",
    "Change (%)": 2
  }
]

Request: Entry CC(Cc1ccccc1)(NC(=O)[C@@H]1CCCN1C(=O)CCCc1ccccc1)C(=O)N1CCC[C@H]1C(=O)O (stereo partly drawn) has what Change?
Result: 2

----------
# Test system: Canis familiaris
# measurementDescription: In vivo percent change in canine heart rate at 30 ug/Kg/min.
# Assay type: functional, Canis lupus familiaris
Below, each entry is listed alongside its reported Change.
Quick note: give the figure in %, leave out the unit.

[
  {
    "molecule": "CC(Cc1ccccc1)(NC(=O)[C@@H]1CCCN1C(=O)CCCc1ccccc1)C(=O)NCCCN.Cl (some centres not stated)",
    "reportedEndpoint": "Change",
    "unitTag": "%",
    "recordedValue": 0.3
  }
]

Now consider a different molecule.
Request: What does the data say about its Change? Entry: CC(Cc1ccccc1)(NC(=O)[C@@H]1CCCN1)C(=O)NCCCN.Cl.Cl (some centres not stated)
Result: -1

----------
# Tested on: Canis familiaris
# measurementDescription: Renal vasodilator activity in anesthetized dogs and percent change in heart rate (HR) was determined at 30 ug/kg min
# Type: functional, Canis lupus familiaris
Square brackets hold non-standard residues; d marks the D form. Peptide text beside a SMILES is read from it. * marks the point of attachment. ξ: configuration not given here. Hydrocinnamoyl = O=C(CCc1ccccc1)*; ξαMeF = CC(N)(Cc1ccccc1)C(=O)O; Bz = O=C(c1ccccc1)*
Item-by-item account of Change
Kindly write the number and append the unit.

These recorded examples may help you get a feel for the data.
[
  {
    "compound": "CC(Cc1ccccc1)(NC(=O)[C@@H]1CCCN1C(=O)CCCCc1ccccc1)C(=O)N[C@@H](CCCN=C(N)N)C(=O)O (some centres not stated)",
    "Change": "-1%"
  },
  {
    "compound": "CC(Cc1ccccc1)(NC(=O)[C@@H]1CCCN1C(=O)CCCc1ccc(O)cc1)C(=O)N[C@@H](CCCN=C(N)N)C(=O)O (some centres not stated)",
    "Change": "0%"
  },
  {
    "compound": "CC(Cc1ccccc1)(NC(=O)[C@@H]1CCCN1C(=O)CCc1ccccc1)C(=O)N[C@@H](CCCN=C(N)N)C(=O)O (some centres not stated) (Hydrocinnamoyl-Pro-[ξαMeF]-Arg-OH)",
    "Change": "1%"
  },
  {
    "compound": "CC(Cc1ccccc1)(NC(=O)[C@@H]1CCCN1)C(=O)N[C@@H](CCCN=C(N)N)C(=O)O (some centres not stated) (H-Pro-[ξαMeF]-Arg-OH)",
    "Change": "0%"
  },
  {
    "compound": "CC(Cc1ccc(O)cc1)(NC(=O)[C@@H]1CCCN1C(=O)CCCc1ccc(O)cc1)C(=O)N[C@@H](CCCN=C(N)N)C(=O)O (some centres not stated)",
    "Change": "-7.5%"
  },
  {
    "compound": "N=C(N)NCCC[C@H](NC(=O)[C@H](Cc1ccccc1)NC(=O)[C@@H]1CCCN1C(=O)c1ccccc1)C(=O)O (Bz-Pro-Phe-Arg-OH)",
    "Change": "0%"
  }
]

Proceed to the following item.
Request: Please look up its Change: CC(Cc1ccccc1)(NC(=O)[C@@H]1CCCN1C(=O)CCCc1ccccc1)C(=O)N[C@@H](CCCN=C(N)N)C(=O)O (some centres not stated)
Result: 0%
